Measured Target: Histamine H3 receptor (Homo sapiens, UniProt Q9Y5N1)
Sequence (Q9Y5N1 whole entry): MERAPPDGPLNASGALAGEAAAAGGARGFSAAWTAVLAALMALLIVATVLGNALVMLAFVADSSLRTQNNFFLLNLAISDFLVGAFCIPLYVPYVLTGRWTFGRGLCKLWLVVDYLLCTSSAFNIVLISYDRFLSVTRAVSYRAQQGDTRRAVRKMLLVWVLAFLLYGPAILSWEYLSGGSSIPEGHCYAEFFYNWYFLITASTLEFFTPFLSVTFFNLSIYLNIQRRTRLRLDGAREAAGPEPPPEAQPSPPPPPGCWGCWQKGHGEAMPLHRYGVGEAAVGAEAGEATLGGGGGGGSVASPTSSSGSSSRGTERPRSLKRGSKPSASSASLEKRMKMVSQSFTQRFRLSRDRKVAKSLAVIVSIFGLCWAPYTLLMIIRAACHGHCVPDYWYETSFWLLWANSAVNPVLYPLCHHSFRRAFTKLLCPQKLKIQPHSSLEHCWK
Assay Details: Displacement of [3H]-N-alpha-methylhistamine from human histamine H3 receptor stably expressed in HEK293 cell membrane after 90 mins
pKi: −log10 of the molar value.
Quantity Kind: pKi

                                   molecule  measured_number
0              CCc1ccc(OCCCCCCN2CCCCCC2)cc1             7.07
1  Cc1ccc2oc(-c3ccc(OCCCCCCN4CCCCCC4)cc3)cc(=O)c2c1             6.80
2            CCc1ccc(OCCCCCCN2CCC(C)CC2)cc1             6.74
3  CC1CCCN(CCCCCCOc2ccc3c(c2)C(=O)CC(c2ccccc2)O3)C1 (stereo unspecified)             6.28
4  Cc1ccc2oc(-c3ccc(OCCCCCCN4CCCC(C)C4)cc3)cc(=O)c2c1 (stereo unspecified)             7.22
5  Cc1ccc2oc(-c3ccc(OCCCCCCN4CCCCC4)cc3)cc(=O)c2c1             6.64
